// data source = the NIST ThermoML archive (doi:10.1016/j.jct.2010.06.009)

Would you mind telling me the reported activity coefficient of each entry?
# experimentSummary: activity coefficient (dimensionless); of the first substance listed, at infinite dilution; xn = mol fraction of the nth substance listed
# conditions: 342.9 K; 101 kPa; Liquid; Chromatography; x1 = 0
Please respond with just the number, no unit label.

Recorded activity coefficient for C=CCCCCCCCC [1-decene] + CC[n+]1ccccc1.O=S(=O)([N-]S(=O)(=O)C(F)(F)F)C(F)(F)F , please?
54.5

Recorded activity coefficient for C#CCCCCC [1-heptyne] + CC[n+]1ccccc1.O=S(=O)([N-]S(=O)(=O)C(F)(F)F)C(F)(F)F , please?
6.53

Recorded activity coefficient for CCCCCCC [heptane] + CC[n+]1ccccc1.O=S(=O)([N-]S(=O)(=O)C(F)(F)F)C(F)(F)F , please?
11.8

Recorded activity coefficient for CO [methanol] + CC[n+]1ccccc1.O=S(=O)([N-]S(=O)(=O)C(F)(F)F)C(F)(F)F , please?
1.26

Recorded activity coefficient for CCCO [propan-1-ol] + CC[n+]1ccccc1.O=S(=O)([N-]S(=O)(=O)C(F)(F)F)C(F)(F)F , please?
2.29

Recorded activity coefficient for CCCCC [pentane] + CC[n+]1ccccc1.O=S(=O)([N-]S(=O)(=O)C(F)(F)F)C(F)(F)F , please?
2.36

Recorded activity coefficient for C#CCCCCCC [1-octyne] + CC[n+]1ccccc1.O=S(=O)([N-]S(=O)(=O)C(F)(F)F)C(F)(F)F , please?
10.4

Recorded activity coefficient for CCCCCCCCC [nonane] + CC[n+]1ccccc1.O=S(=O)([N-]S(=O)(=O)C(F)(F)F)C(F)(F)F , please?
42.2

Recorded activity coefficient for C=CCCCC [hex-1-ene] + CC[n+]1ccccc1.O=S(=O)([N-]S(=O)(=O)C(F)(F)F)C(F)(F)F , please?
5.34

Recorded activity coefficient for C#CCCCC [1-hexyne] + CC[n+]1ccccc1.O=S(=O)([N-]S(=O)(=O)C(F)(F)F)C(F)(F)F , please?
3.88

Recorded activity coefficient for C1CCCCC1 [cyclohexane] + CC[n+]1ccccc1.O=S(=O)([N-]S(=O)(=O)C(F)(F)F)C(F)(F)F , please?
5.63

Recorded activity coefficient for CCCCCC [hexane] + CC[n+]1ccccc1.O=S(=O)([N-]S(=O)(=O)C(F)(F)F)C(F)(F)F , please?
5.46

Recorded activity coefficient for CCO [ethanol] + CC[n+]1ccccc1.O=S(=O)([N-]S(=O)(=O)C(F)(F)F)C(F)(F)F , please?
1.71

Recorded activity coefficient for C#CCCC [1-pentyne] + CC[n+]1ccccc1.O=S(=O)([N-]S(=O)(=O)C(F)(F)F)C(F)(F)F , please?
2.23

Recorded activity coefficient for CC1CCCCC1 [methylcyclohexane] + CC[n+]1ccccc1.O=S(=O)([N-]S(=O)(=O)C(F)(F)F)C(F)(F)F , please?
9.01

Recorded activity coefficient for CCCCCCCC [octane] + CC[n+]1ccccc1.O=S(=O)([N-]S(=O)(=O)C(F)(F)F)C(F)(F)F , please?
23.4

Recorded activity coefficient for C=CCCCCCC [oct-1-ene] + CC[n+]1ccccc1.O=S(=O)([N-]S(=O)(=O)C(F)(F)F)C(F)(F)F , please?
19.8

Recorded activity coefficient for C=CCCCCCCCC [1-decene] + CCCC[n+]1ccccc1.O=S(=O)([N-]S(=O)(=O)C(F)(F)F)C(F)(F)F , please?
31.2
